System: B. cepacia clinical isolates
assay.text: Broth microdilution MIC, clinical isolate strains (NAUTICA)
Assay type: cell-based
assay.context: Table 4B; each table row is one clinical isolate; unit assumed
Catalogue of MIC, B. CEPACIA values

Known MIC, B. CEPACIA results, listed for orientation:
smiles_input=COC(=O)c1sc(-c2ccc(F)cc2)cc1-c1nnnn1C test_target="B. cepacia clinical isolates" value_reported="> 4 µg/mL"
smiles_input=COC(=O)c1sc(-c2ccc(F)cc2)cc1-c1nnn(C)n1 test_target="B. cepacia clinical isolates" value_reported="> 8 µg/mL"
smiles_input=Cn1nnc(-c2cc(-c3ccc(F)cc3)sc2-c2ccc(F)cc2)n1 test_target="B. cepacia clinical isolates" value_reported="> 16 µg/mL"
smiles_input=Fc1ccc(-c2cc(-c3nnn[nH]3)c(-c3ccc(F)cc3)s2)cc1 test_target="B. cepacia clinical isolates" value_reported="> 32 µg/mL"

Next compound, MIC, B. CEPACIA to be filled in.
Note down MIC, B. CEPACIA recorded for "Cn1nnnc1-c1cc(-c2ccc(F)cc2)sc1-c1ccc(F)cc1" > 16 µg/mL

====

System: S. simulans ATCC 27848
assay.text: Broth microdilution MIC, ATCC strains
Format: cell-based
assay.context: Staphylococcus simulans, ATCC27848, read-out: MIC (growth inhibition, microdilution method)
As shown below, each of these compounds has a reported MIC value.

smiles_input=Cn1nnc(-c2cc(-c3ccc(F)cc3)sc2C(=O)O)n1 value_reported="> 16 µg/mL"
smiles_input=COC(=O)c1cc(-c2nnn(C)n2)c(C(=O)OC)s1 value_reported="256 µg/mL"
smiles_input=COC(=O)c1sc(-c2ccc(F)cc2)cc1-c1nnn(C)n1 value_reported="> 8 µg/mL"
smiles_input=CCOC(=O)c1cc(-c2nnn[nH]2)c(-c2ccc(F)cc2)s1 value_reported="> 64 µg/mL"
smiles_input=Fc1ccc(-c2cc(-c3nnn[nH]3)c(-c3ccc(F)cc3)s2)cc1 value_reported="> 32 µg/mL"

Determine its reported MIC: "O=C(O)c1cc(-c2nnn[nH]2)c(-c2ccc(F)cc2)s1" 64 µg/mL

Given "O=C(O)c1cc(-c2nn[nH]n2)cs1" , respond with its MIC. > 32 µg/mL

Hello, please tell me recorded MIC for this one: "COC(=O)c1sc(-c2ccc(F)cc2)cc1-c1nnnn1C" > 4 µg/mL

====

System: MRSA ATCC 33591
assay.text: Broth microdilution MIC, ATCC strains
Assay type: cell-based
assay.context: Staphylococcus aureus; MRSA ATCC 33591; read-out: MIC (growth inhibition, microdilution method)
Measured MIC by item

Examples with answers:
compound="O=C(O)c1cc(-c2nnn[nH]2)c(-c2ccc(F)cc2)s1 [DNM-121]" value_reported="64 µg/mL"
compound="Cn1nnc(-c2cc(-c3ccc(F)cc3)sc2-c2ccc(F)cc2)n1 [DNM-132]" value_reported="> 16 µg/mL"
compound="O=C(O)c1sc(-c2ccc(F)cc2)cc1-c1nnn[nH]1 [DNM-141]" value_reported="> 16 µg/mL"
compound="Cn1nnnc1-c1cc(-c2ccc(F)cc2)sc1C(=O)O [DNM-143]" value_reported="> 8 µg/mL"
compound="Cn1nnc(-c2cc(C(=O)O)sc2-c2ccc(F)cc2)n1 [DNM-123]" value_reported="> 8 µg/mL"
compound="Cn1nnc(-c2cc(-c3ccc(F)cc3)sc2C(=O)O)n1 [DNM-142]" value_reported="> 16 µg/mL"

Next:
# return recorded MIC for input Cn1nnc(-c2cc(C(=O)O)sc2C(=O)O)n1 [DNM-112] 16 µg/mL
